Tested on: Monocotyledonous and dicotyledonous test plants
Test: Herbicidal action, application pre-emergence (Example B1)
Type: in vivo
Parameters: key: 10=total damage to plant; 0=no damage to plant
Conditions: 1000 g/ha, Setaria, scale 10=total damage to plant, 0=no damage to plant, evaluated after 9 or 13 days
Kindly return MET if reported Herbicidal action on Setaria (damage rating) is no lower than 8; return NOT MET if it is lower.

compound: CC1(C)CC(S(=O)(Cc2c(F)cccc2F)=NS(=O)(=O)C(F)(F)F)=NO1 (stereo not shown)
className: NOT MET
--
compound: CC(=O)N=S(=O)(Cc1c(F)cccc1F)C1=NOC(C)(C)C1 (stereo not shown)
className: MET
--
compound: CC(C)(C)OC(=O)N=S(=O)(Cc1c(F)cccc1F)C1=NOC(C)(C)C1 (stereo not shown)
className: MET
--
compound: CC1(C)CC(S(=N)(=O)Cc2c(F)cccc2C(F)(F)F)=NO1 (stereo not shown)
className: MET
--
compound: CC1(C)CC(S(=O)(Cc2c(F)cccc2F)=NC=O)=NO1 (stereo not shown)
className: MET
--
compound: Cc1ccccc1CS(=N)(=O)C1=NOC(C)(C)C1 (stereo not shown)
className: NOT MET

###

Each entry below carries its reported Herbicidal action on Setaria (damage rating).
Test system: Monocotyledonous and dicotyledonous test plants
Assay: Herbicidal action, application pre-emergence (Example B1)
Format: in vivo
Conditions: 1000 g/ha, Setaria, scale 10=total damage to plant, 0=no damage to plant, evaluated after 9 or 13 days
quantity: Herbicidal action on Setaria (damage rating)

compound: CC1(C)CC(S(=O)(=NC(=O)c2ccccc2)C(F)c2c(F)cccc2F)=NO1 (centres unmarked)
reading: 8
//
compound: CC1(C)CC(S(=O)(=NC(=O)C(F)(F)F)C(Cl)c2c(F)cccc2F)=NO1 (centres unmarked)
reading: 9
//
compound: CC1(C)CC(S(=O)(Cc2c(F)cccc2F)=NC(=O)c2ccccc2)=NO1 (centres unmarked)
reading: 7
//
compound: CC1(C)CC(S(=O)(Cc2c(F)cccc2F)=NC(=O)c2cccnc2Cl)=NO1 (centres unmarked)
reading: 9
//
compound: CC1(C)CC(S(=N)(=O)Cc2cc(F)ccc2F)=NO1 (centres unmarked)
reading: 8
//
compound: CC1(C)CC(S(=O)(Cc2c(F)cccc2F)=N[N+](=O)[O-])=NO1 (centres unmarked)
reading: 8
//
compound: CC1(C)CC(S(=N)(=O)C(F)c2ccccc2OC(F)(F)F)=NO1 (mixture of isomers)
reading: 8
//
compound: CN=S(=O)(Cc1c(F)cccc1F)C1=NOC(C)(C)C1 (centres unmarked)
reading: 9
//
compound: CC1(C)CC(S(=N)(=O)C(F)(F)c2c(F)cccc2F)=NO1 (centres unmarked)
reading: 10
//
compound: CC(Cl)OC(=O)N=S(=O)(Cc1c(F)cccc1F)C1=NOC(C)(C)C1 (mixture of isomers)
reading: 8
//
compound: CC1(C)CC(S(=N)(=O)Cc2cccc(F)c2F)=NO1 (centres unmarked)
reading: 6
//
compound: CC(c1c(F)cccc1F)S(=O)(=NC(=O)C(F)(F)F)C1=NOC(C)(C)C1 (centres unmarked) [1.20]
reading: 8
//
compound: CC1(C)CC(S(=N)(=O)C(Cl)c2c(F)cccc2F)=NO1 (mixture of isomers)
reading: 10
//
compound: CC1(C)CC(S(=N)(=O)Cc2c(F)cccc2F)=NO1 (centres unmarked)
reading: 9
//
compound: CC1(C)CC(S(=N)(=O)Cc2cc(F)cc3c2OCOC3)=NO1 (centres unmarked)
reading: 8
//
compound: CC(c1c(F)cccc1F)S(=O)(=NC(=O)C(F)(F)F)C1=NOC(C)(C)C1 (centres unmarked) [1.19]
reading: 9
//
compound: Cn1nc(C(F)(F)F)c(CS(=N)(=O)C2=NOC(C)(C)C2)c1Cl (centres unmarked)
reading: 10
//
compound: CC1(C)CC(S(=N)(=O)Cc2ccc(F)cc2F)=NO1 (centres unmarked)
reading: 8
//
compound: CC1(C)CC(S(=O)(Cc2c(F)cccc2F)=NC(=O)C(F)(F)F)=NO1 (centres unmarked)
reading: 10
//
compound: CC1(C)CC(S(=O)(Cc2c(F)cccc2F)=NC(=O)c2ccc(Cl)cc2)=NO1 (centres unmarked)
reading: 8
